Test system: HS 578T breast
experiment: NCI-60 one-dose screen, 48 h (100 = growth as untreated, 0 = no growth, -100 = all killed)
experimental.conditions: 10 µM
Compounds without any hit were thinned out: in the full panel of roughly 83,000, 20% have a hit.
Kindly state growth for each of the entries shown.
Numbers only, in %.

Recorded results for 5 compounds are shown here.
(Q) Given the entry `CSC(=N\N=C\c1ccc(N(C)C)cc1)/N=C/N(C)C` , what growth was observed with HS 578T breast?
(A) 90.1

(Q) Given the entry `C[N+](C)(C)C(=O)c1ccccc1` , what growth was observed with HS 578T breast?
(A) 118

(Q) Write down the reported growth of `COC(=O)c1cccnc1` , test system: HS 578T breast.
(A) 99.3

(Q) Could you share what growth was measured for `O=C(O)CSCSCC(=O)O` , tested on HS 578T breast?
(A) 114

(Q) Which growth is reported with HS 578T breast for this entry: `CCCCC1C(=O)N(c2ccccc2)N(c2ccccc2)C1=O` ?
(A) 114

// each compound listed below needs its growth
1. CC(=O)c1c[nH]c2ccccc12
2. CC(C)NC(=O)OCc1c(COC(=O)NC(C)C)c(-c2ccc(Cl)c(Cl)c2)n2c1SCC2
3. CC(=Nc1ccccc1)C1=C(O)C(Cc2cccc(F)c2)NC1=O (stereo not drawn)
4. CC12CC3CC1C(C(=O)O2)C3C(=O)O (stereo not drawn)
5. CCOC(=O)C(C#N)Cc1ccccc1 (stereo not drawn)
6. Nc1ccccc1C(=O)Nc1ccc(Cl)cc1Cl

(A)
104
36.3
45.6
108
112
87.4

====

Would you kindly list growth for each of these compounds?
Tested on: MDA-MB-435 melanoma
experiment: NCI-60 one-dose screen, 48 h (100 = growth as untreated, 0 = no growth, -100 = all killed)
experimental.conditions: 10 µM
About 83,000 compounds went through this panel and 20% of them were active in at least one assay; those are over-represented in the sample as a whole.
Numbers only, in %.

Known results for compounds:
(Q) Given `CC1(C)N=C(N)N=C(N)N1c1ccc(Cl)cc1` , state its recorded growth.
(A) 28.8

(Q) Request the reported growth associated with `O=C(Cc1ccccc1)Cc1ccccc1`
(A) 105

Go through the items and report each one's growth.
1. CC(=O)Cc1ccc(-c2ccccc2)cc1
2. Cc1ccccc1C1N=C2Oc3ccccc3C=C2C(=O)N1 (stereo unspecified)
3. O=[N+]([O-])c1ccccc1S(=O)c1ccccc1[N+](=O)[O-]
4. CC1OC(Oc2c(-c3ccc(O)c(O)c3)oc3cc(O)cc(O)c3c2=O)C(O)C(O)C1O (stereo unspecified)

(A)
1: 114; 2: -57.7; 3: 72.2; 4: 111

====

Tested on: BT-549 breast
experiment: NCI-60 one-dose screen, 48 h (100 = growth as untreated, 0 = no growth, -100 = all killed)
experimental.conditions: 10 µM
The panel holds about 83,000 compounds, 20% with a hit somewhere; the sample as a whole holds those more often. Active and inactive are the calls of the source. How the source made its calls: active means growth percent below 10; inactive means the rest.
quantity.measured: growth

(Q) Fill in the blank: the reported growth of `NC(=O)NC(=O)c1ccc(Cl)cc1` is ____.
(A) 99.4% (inactive)

(Q) Recorded growth for CC(=O)OC(OC(C)=O)C1CCCO1 (configuration not stated) , please?
(A) 95.8% (inactive)

(Q) Need growth, item `Cc1cc(N)ccc1-c1ccc(N)cc1C`
(A) 92.3% (inactive)

(Q) Name the reported growth value associated with the molecule `CC(=O)c1ccc(C(C)(C)C)cc1`
(A) 102% (inactive)

(Q) For the molecule `NCCCN` , what growth is on record?
(A) 106% (inactive)

Look at each molecule and report its growth.
1. O=C1OC(=O)C2C1C1(Cl)C(Cl)=C(Cl)C2(Cl)C2C(=O)OC(=O)C21 (configuration not stated)
2. CC(C)(C)c1cc(O)c(C(C)(C)C)cc1O

(A)
103% (inactive)
81.3% (inactive)

The measured values listed here are drawn from PubChem BioAssay (NCI).
